Tested on: larvae of the mustard beetle (Phaedon cochleariae)
Assay: Phaedon test (PHAECO spray treatment)
Settings: Phaedon cochleariae, in Brassica rapa, foliar, read-out: effect in % (beetle larvae killed)
measured-quantity: pest or weed control at 100 g/ha

INSERT INTO assay_data (query_smiles, measured_quantity, observed_measurement) VALUES
  ('CCNC(=O)c1cc(Cl)cc(Cl)c1NC(=O)c1cc(Cn2nnc(C(F)(F)C(F)(F)F)n2)nn1-c1ncccc1Cl', 'pest or weed control at 100 g/ha', '≥ 80%'),
  ('CCNC(=O)c1cc(C#N)cc(C)c1NC(=O)c1cc(Cn2nnc(C(F)(F)F)n2)nn1-c1ncccc1Cl', 'pest or weed control at 100 g/ha', '≥ 80%'),
  ('N#CCNC(=O)c1cc(Cl)cc(Cl)c1NC(=O)c1cc(Cn2nnc(C(F)F)n2)nn1-c1ncccc1Cl', 'pest or weed control at 100 g/ha', '≥ 80%'),
  ('CNC(=O)c1cc(Cl)cc(C)c1NC(=O)c1cc(Cn2nnc(C(F)(F)F)n2)nn1-c1ncccc1Cl', 'pest or weed control at 100 g/ha', '≥ 80%');

In: # get_value(readout='pest or weed control at 100 g/ha', item= `Cc1cc(C#N)cc(C(=O)NCC2CC2)c1NC(=O)c1cc(Cn2nnc(C(F)F)n2)nn1-c1ncccc1Cl` )
Out: ≥ 80%

In: Query `Cc1cc(F)cc(C(=O)NC(C)(C)C)c1NC(=O)c1cc(Cn2nnc(C(F)F)n2)nn1-c1ncccc1Cl` next
Out: ≥ 80%

In: Also check `Cc1cc(C#N)cc(C(=O)NC2CC2)c1NC(=O)c1cc(Cn2nnc(C(F)F)n2)nn1-c1ncccc1Cl`
Out: ≥ 80%
